Reported viability, T/C is given for each of the following compounds.
Tested on: DMS-114 complex spheroids with HUVEC/MSC, growth % test/control
Test: Anticancer human tumor DMS-114 cell line growth inhibition [AhR]
Conditions: second compound 10 µM; first compound 0.01 µM; stronger effect = lower value

These solved cases illustrate the format of a correct answer.
CC[C@@]1(O)C(=O)OCc2c1cc1n(c2=O)Cc2cc3c(CN(C)C)c(O)ccc3nc2-1 + Cc1cncc(-c2nc(NCCc3c[nH]c4ccccc34)c3ncn(C(C)C)c3n2)c1	27.2%
Nc1ncn(C2CC(O)C(CO)O2)c(=O)n1 (configuration not stated) + Cc1cncc(-c2nc(NCCc3c[nH]c4ccccc34)c3ncn(C(C)C)c3n2)c1	36.9%
Cn1ncnc1C1c2n[nH]c(=O)c3cc(F)cc(c23)NC1c1ccc(F)cc1 (configuration not stated) + Cc1cncc(-c2nc(NCCc3c[nH]c4ccccc34)c3ncn(C(C)C)c3n2)c1	41.6%
CC[C@@]1(O)C(=O)OCc2c1cc1n(c2=O)Cc2cc3c(CN(C)C)c(O)ccc3nc2-1 + Cc1ccccc1N=Nc1ccc(NC(=O)c2ccnn2C)c(C)c1	87.6%
Cn1ncnc1C1c2n[nH]c(=O)c3cc(F)cc(c23)NC1c1ccc(F)cc1 (configuration not stated) + Cc1ccccc1N=Nc1ccc(NC(=O)c2ccnn2C)c(C)c1	96.2%

The value of viability, T/C measured for the compound Nc1ncn(C2CC(O)C(CO)O2)c(=O)n1 (configuration not stated) + Cc1ccccc1N=Nc1ccc(NC(=O)c2ccnn2C)c(C)c1 turned out to be 98.1%

The value of viability, T/C measured for the compound CC1COCCN1c1cc(-c2ccnn2C)c2ccnc(-c3ccn[nH]3)c2n1 (configuration not stated) + Cc1ccccc1N=Nc1ccc(NC(=O)c2ccnn2C)c(C)c1 turned out to be 89.2%

The value of viability, T/C measured for the compound CC[C@@]1(O)C(=O)OCc2c1cc1n(c2=O)Cc2cc3c(CN(C)C)c(O)ccc3nc2-1 + CC(CO)NC(=O)c1cc(-c2ccc(Cl)cc2)nn(-c2cnn(C)c2)c1=O turned out to be 92.7%

The value of viability, T/C measured for the compound CC1COCCN1c1cc(-c2ccnn2C)c2ccnc(-c3ccn[nH]3)c2n1 (configuration not stated) + CC(CO)NC(=O)c1cc(-c2ccc(Cl)cc2)nn(-c2cnn(C)c2)c1=O turned out to be 63.2%

The value of viability, T/C measured for the compound Cn1ncnc1C1c2n[nH]c(=O)c3cc(F)cc(c23)NC1c1ccc(F)cc1 (configuration not stated) + CC(CO)NC(=O)c1cc(-c2ccc(Cl)cc2)nn(-c2cnn(C)c2)c1=O turned out to be 98.8%

The value of viability, T/C measured for the compound CC1COCCN1c1cc(-c2ccnn2C)c2ccnc(-c3ccn[nH]3)c2n1 (configuration not stated) + Cc1cncc(-c2nc(NCCc3c[nH]c4ccccc34)c3ncn(C(C)C)c3n2)c1 turned out to be 29.6%

The value of viability, T/C measured for the compound Nc1ncn(C2CC(O)C(CO)O2)c(=O)n1 (configuration not stated) + CC(CO)NC(=O)c1cc(-c2ccc(Cl)cc2)nn(-c2cnn(C)c2)c1=O turned out to be 99.7%

====

System: DMS-114 complex spheroids with HUVEC/MSC, growth % test/control
Test: Anticancer human tumor DMS-114 cell line growth inhibition [AhR];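 further: spheroids exposed to agents for 7 days before readout; 100% = DMSO vehicle control wells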
Settings: second compound 1 µM; first compound 0.000949 µM; stronger effect = lower value
Attribute measured: viability, T/C (%)
Report as a plain number; the unit % is understood.

These solved cases illustrate the format of a correct answer.
Nc1ncn(C2CC(O)C(CO)S2)c(=O)n1 (stereo unspecified) + Cc1cncc(-c2nc(NCCc3c[nH]c4ccccc34)c3ncn(C(C)C)c3n2)c1	87.7
Nc1ncn(C2CC(O)C(CO)S2)c(=O)n1 (stereo unspecified) + CC(CO)NC(=O)c1cc(-c2ccc(Cl)cc2)nn(-c2cnn(C)c2)c1=O	107
CCc1c2c(nc3ccc(O)cc13)-c1cc3c(c(=O)n1C2)COC(=O)[C@]3(O)CC + CC(CO)NC(=O)c1cc(-c2ccc(Cl)cc2)nn(-c2cnn(C)c2)c1=O	49.4
CC(C)CC(NC(=O)C(Cc1ccccc1)NC(=O)c1cnccn1)B(O)O (stereo unspecified) + Cc1ccccc1N=Nc1ccc(NC(=O)c2ccnn2C)c(C)c1	94.7

The value of viability, T/C measured for the molecule CCc1c2c(nc3ccc(O)cc13)-c1cc3c(c(=O)n1C2)COC(=O)[C@]3(O)CC + Cc1ccccc1N=Nc1ccc(NC(=O)c2ccnn2C)c(C)c1 turned out to be 94

The value of viability, T/C measured for the molecule CC(C)CC(NC(=O)C(Cc1ccccc1)NC(=O)c1cnccn1)B(O)O (stereo unspecified) + CC(CO)NC(=O)c1cc(-c2ccc(Cl)cc2)nn(-c2cnn(C)c2)c1=O turned out to be 113

====

Tested on: DMS-114 complex spheroids with HUVEC/MSC, growth % test/control
Test: Anticancer human tumor DMS-114 cell line growth inhibition [AhR];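 further: spheroids exposed to agents for 7 days before readout; 100% = DMSO vehicle control wells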
Details: second compound 10 µM; first compound 0.316 µM; stronger effect = lower value
Attribute measured: viability, T/C (%)
Report as a plain number; the unit % is understood.

These solved cases illustrate the format of a correct answer.
Nc1ccn(C2OC(CO)C(O)C2(F)F)c(=O)n1 (centres undefined) + CC(CO)NC(=O)c1cc(-c2ccc(Cl)cc2)nn(-c2cnn(C)c2)c1=O	12.7
CC1COCCN1c1cc(-c2ccnn2C)c2ccnc(-c3ccn[nH]3)c2n1 (centres undefined) + Cc1cncc(-c2nc(NCCc3c[nH]c4ccccc34)c3ncn(C(C)C)c3n2)c1	9.12
Nc1ccccc1NC(=O)c1ccc(CNC(=O)OCc2cccnc2)cc1 + Cc1ccccc1N=Nc1ccc(NC(=O)c2ccnn2C)c(C)c1	85.5

Now for another entry.
viability, T/C of Nc1ncn(C2CC(O)C(CO)O2)c(=O)n1 (centres undefined) + Cc1cncc(-c2nc(NCCc3c[nH]c4ccccc34)c3ncn(C(C)C)c3n2)c1 , assay on DMS-114 complex spheroids with HUVEC/MSC, growth % test/control, is 35.6

====

System: DMS-114 complex spheroids with HUVEC/MSC, growth % test/control
Assay: Anticancer human tumor DMS-114 cell line growth inhibition [AhR];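 further: spheroids exposed to agents for 7 days before readout; 100% = DMSO vehicle control wells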
Conditions: second compound 0.1 µM; first compound 0.003 µM; stronger effect = lower value
Excerpt: Multicellular complex tumor spheroid response to aryl hydrocarbon receptor antagonists in combination with a variety of drugs and investigational agents in selected tumor cell lines […] Compounds. […] If the clinical Cmax for an agent had not been determined, the highest concentration tested was 10 microM (Table 1). […]
Binary label based on viability, T/C with cut-off 60%: below gives condition met, not below gives condition not met.

Answered examples (3):
Nc1ncn(C2CC(O)C(CO)S2)c(=O)n1 (centres undefined) + Cc1cncc(-c2nc(NCCc3c[nH]c4ccccc34)c3ncn(C(C)C)c3n2)c1	condition not met
CCc1c2c(nc3ccc(O)cc13)-c1cc3c(c(=O)n1C2)COC(=O)[C@]3(O)CC + CC(CO)NC(=O)c1cc(-c2ccc(Cl)cc2)nn(-c2cnn(C)c2)c1=O	condition met
CC(C)CC(NC(=O)C(Cc1ccccc1)NC(=O)c1cnccn1)B(O)O (centres undefined) + Cc1ccccc1N=Nc1ccc(NC(=O)c2ccnn2C)c(C)c1	condition not met

# input I'd appreciate it if you could check whether Nc1ncn(C2CC(O)C(CO)S2)c(=O)n1 (centres undefined) + CC(CO)NC(=O)c1cc(-c2ccc(Cl)cc2)nn(-c2cnn(C)c2)c1=O has viability, T/C smaller than 60%.
# output condition not met

# input I'd appreciate it if you could check whether Nc1ncn(C2CC(O)C(CO)S2)c(=O)n1 (centres undefined) + Cc1ccccc1N=Nc1ccc(NC(=O)c2ccnn2C)c(C)c1 has viability, T/C smaller than 60%.
# output condition not met

# input I'd appreciate it if you could check whether CC(C)CC(NC(=O)C(Cc1ccccc1)NC(=O)c1cnccn1)B(O)O (centres undefined) + Cc1cncc(-c2nc(NCCc3c[nH]c4ccccc34)c3ncn(C(C)C)c3n2)c1 has viability, T/C smaller than 60%.
# output condition not met

# input I'd appreciate it if you could check whether CCc1c2c(nc3ccc(O)cc13)-c1cc3c(c(=O)n1C2)COC(=O)[C@]3(O)CC + Cc1ccccc1N=Nc1ccc(NC(=O)c2ccnn2C)c(C)c1 has viability, T/C smaller than 60%.
# output condition not met

# input I'd appreciate it if you could check whether CCc1c2c(nc3ccc(O)cc13)-c1cc3c(c(=O)n1C2)COC(=O)[C@]3(O)CC + Cc1cncc(-c2nc(NCCc3c[nH]c4ccccc34)c3ncn(C(C)C)c3n2)c1 has viability, T/C smaller than 60%.
# output condition met

====

System: DMS-114 complex spheroids with HUVEC/MSC, growth % test/control
Test: Anticancer human tumor DMS-114 cell line growth inhibition [AhR];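 further: spheroids exposed to agents for 7 days before readout; 100% = DMSO vehicle control wells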
Settings: second compound 10 µM; first compound 1 µM; stronger effect = lower value
Reported viability, T/C is given for each of the following compounds.
Report as a plain number; the unit % is understood.

These solved cases illustrate the format of a correct answer.
O=C(c1cc(Cc2n[nH]c(=O)c3ccccc23)ccc1F)N1CCN(C(=O)C2CC2)CC1 + Cc1ccccc1N=Nc1ccc(NC(=O)c2ccnn2C)c(C)c1	91.2
CC1(C)CCC(CN2CCN(c3ccc(C(=O)NS(=O)(=O)c4ccc(NCC5CCOCC5)c([N+](=O)[O-])c4)c(Oc4cnc5[nH]ccc5c4)c3)CC2)=C(c2ccc(Cl)cc2)C1 + Cc1cncc(-c2nc(NCCc3c[nH]c4ccccc34)c3ncn(C(C)C)c3n2)c1	47.8

Now for another entry.
The value of viability, T/C measured for the compound Nc1ccccc1NC(=O)c1ccc(CNC(=O)OCc2cccnc2)cc1 + Cc1ccccc1N=Nc1ccc(NC(=O)c2ccnn2C)c(C)c1 turned out to be 72.8
